Origin of measurements: the nanobody polyreactivity screen of Harvey et al. (2022)

# experiment.summary: yeast display, Sf9 membrane polyspecificity reagent, FACS + sequencing; frameworks hold sequencing errors
recorded.endpoint: polyreactivity (PSR sort gate)

- QVQLVESGGGLVQAGGSLRLSCAASGFIFRYFAMGWYRQAPGKERELVAAISRSGGSTYYADSVKGRFTISRDNAKNTVYLQMNSLKPEDTAVYYCAAKDGRSYYDLSPMDYWGQGSQVTVSS: low polyreactivity
- QDQLVESGGCLVQAGGSLRLSCAASGSIFTKYAMGWYRQAPGKERELVAAIDVNGGSTRYADSVKGRFTISRDNAKNTVYLQMNSLKPEDTAVYYCAKDYTASYYPQGLYDYWGQGTQVTVSS: low polyreactivity
